Test system: human HSC
Test: PDGF-induced migration of human hepatic stellate cells (modified Boyden chamber)
Type: cell-based
Conditions: PDGF-BB 10 ng/ml, 24 h FTS, read-out: FTS concentration inhibiting (50%) the PDGF-stimulated cell migration
pIC50: −log10 of the molar value.
QUANTITY MEASURED: pIC50

Ask: For the compound shown here, CC(C)=CCC/C(C)=C/CC/C(C)=C/CSc1ccccc1C(=O)O [FTS, farnesyl thiosalicylic acid] , give the reported pIC50.
Reply: 5.60 to 5.70

* * *

Assay: Distribution of 3H-FTS in plasma and liver
Format: in vivo, rat
Conditions: Wistar, rat, liver, other: injected (type of injection not given), 5 mg/Kg, read-out: drug level in the liver at 24 h
QUANTITY MEASURED: concentration at 24 h (nM)
A number alone suffices; assume nM.

Ask: Given the entry `CC(C)=CCC/C(C)=C/CC/C(C)=C/CSc1ccccc1C(=O)O` , report its measured concentration at 24 h.
Reply: 500
